Source: patent US20090221680

# Assay System: thrombin (endogenous, clotting assay in plasma or whole blood) (Homo sapiens, UniProt P00734;P00734 P00734:328-363,P00734:364-622)
# Test Name: inhibition; ACT at 10 uM
Please note: 1 applies when activity is 400 s or greater, and -1 applies otherwise.

Entry ACTGCCTAGGTTGGTGTGGTTGGTGGCAGT (ssDNA) [ARC2184] : is its activity no less than 400 s?
-1

Same again, this time with CCTCAGGGATGGTGTGGGTGGCTGAGGTTT (ssDNA) [ARC2185]
-1

TACCTCAGGGATGGTGTGGGTGGCTGAGGTA (ssDNA) [ARC2174] ?
1

Same lookup for TAACTGCCTAGGTTGGGTAGGGTGGTGGCAGTTA (ssDNA) [ARC2179] , please.
1

Queued: CTAACTGCCTAGGTTGGGTAGGGTGGTGGCAGTTAG (ssDNA) [ARC2180]
1

Same read-out for GACTAACTGCCTAGGTTGGGTAGGGTGGTGGCAGTTAGTC (ssDNA) [ARC2182] ?
1

Now the binder ACCTCAGGGATGGTGTGGGTGGCTGAGGT (ssDNA) [ARC2173]
1

And what about the binder CCTCAGGGTTGGTGTGGTTGGCTGAGG (ssDNA) [ARC2183] ?
-1

# repeat for AACTGCCTAGGTTGGGTAGGGTGGTGGCAGTT (ssDNA) [ARC2178]
1

# repeat for ACTAACTGCCTAGGTTGGGTAGGGTGGTGGCAGTTAGT (ssDNA) [ARC2181]
1
